- assaySystem: human soluble guanylate cyclase alpha 1 and beta 1 subunits (sGC) (Homo sapiens (Human), UniProt Q02108+Q02153)
- Sequence (Q02108 whole entry partner): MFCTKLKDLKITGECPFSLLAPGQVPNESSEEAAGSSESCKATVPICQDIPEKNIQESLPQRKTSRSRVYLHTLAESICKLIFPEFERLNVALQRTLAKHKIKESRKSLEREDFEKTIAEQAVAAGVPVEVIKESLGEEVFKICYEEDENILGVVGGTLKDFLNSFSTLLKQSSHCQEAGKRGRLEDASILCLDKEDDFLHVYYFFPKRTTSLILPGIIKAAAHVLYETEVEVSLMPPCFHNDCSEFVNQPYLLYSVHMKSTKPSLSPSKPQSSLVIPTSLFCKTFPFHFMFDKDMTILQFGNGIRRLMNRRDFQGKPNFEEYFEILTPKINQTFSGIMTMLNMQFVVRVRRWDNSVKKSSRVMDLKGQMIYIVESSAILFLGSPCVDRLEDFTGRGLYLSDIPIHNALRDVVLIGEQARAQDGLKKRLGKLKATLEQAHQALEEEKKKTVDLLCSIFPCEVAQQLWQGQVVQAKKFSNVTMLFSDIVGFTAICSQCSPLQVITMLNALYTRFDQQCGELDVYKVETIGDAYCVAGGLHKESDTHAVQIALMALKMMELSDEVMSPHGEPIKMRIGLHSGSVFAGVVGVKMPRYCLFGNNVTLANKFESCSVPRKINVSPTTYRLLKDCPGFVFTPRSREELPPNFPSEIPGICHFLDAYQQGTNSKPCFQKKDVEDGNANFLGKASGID
- Sequence (Q02153 whole entry): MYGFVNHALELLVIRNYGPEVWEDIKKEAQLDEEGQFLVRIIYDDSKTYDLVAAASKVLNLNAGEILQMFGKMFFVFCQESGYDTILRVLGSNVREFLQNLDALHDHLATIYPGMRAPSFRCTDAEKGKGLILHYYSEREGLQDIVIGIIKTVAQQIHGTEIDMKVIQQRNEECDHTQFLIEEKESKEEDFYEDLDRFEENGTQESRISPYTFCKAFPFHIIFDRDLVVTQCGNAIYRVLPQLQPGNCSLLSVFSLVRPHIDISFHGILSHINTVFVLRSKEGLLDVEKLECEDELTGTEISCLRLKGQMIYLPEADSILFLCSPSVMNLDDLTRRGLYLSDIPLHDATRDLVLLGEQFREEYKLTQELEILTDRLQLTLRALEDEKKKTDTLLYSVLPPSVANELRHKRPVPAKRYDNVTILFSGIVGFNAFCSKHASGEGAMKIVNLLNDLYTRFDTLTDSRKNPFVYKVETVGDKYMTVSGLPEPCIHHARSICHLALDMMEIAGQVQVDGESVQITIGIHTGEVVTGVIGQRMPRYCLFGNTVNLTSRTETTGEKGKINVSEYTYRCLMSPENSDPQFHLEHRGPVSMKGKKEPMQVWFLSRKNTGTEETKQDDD
- assayExplanation: sGC cellular activator assay (cGMP, HTRF), in the presence and absence of 50% human serum
- experimentalParameters: CHO cells stably expressing human sGC alpha 1/beta 1, preincubated with 40 microM ODQ; cGMP by HTRF; Table 2 does not state whether with or without 50% human serum
Would you kindly list pEC50 for each of these compounds?
Numbers only, as −log10 of the molar value.

>>> numericvalue("CCO[C@@H]1CN(c2nc(-c3cc(C)ccc3OCc3cc4c(c(OC)c3)CN(C3CCOCC3)CC4)cs2)CC[C@@H]1C(=O)O [Compound 229]")
8.40
>>> numericvalue("Cc1cc(COc2c(C)cccc2-c2cccc(N3C[C@@H]4C[C@]4(C(=O)O)C3)n2)cc2c1CN(C1CCOC1)CC2 (stereo partly drawn) [Compound 24]")
8.22
>>> numericvalue("COC[C@H]1N(c2cccc(-c3cccc(C)c3OCc3cc(C)c4c(c3)CCN(C3CCOC3)C4)n2)C[C@@H]2C[C@@]21C(=O)O (single isomer, unassigned) [Compound 51]")
7.57

Give pEC50 for all compounds that follow.
1. Cc1ccc(OCc2ccc3c(c2)CCN(C2CCOCC2)C3)c(-c2cccc(N3CC[C@@]4(C(=O)O)C[C@H]4C3)n2)c1 [Compound 16]
2. CCO[C@@H]1CN(c2cccc(-c3cccc(Cl)c3OCc3cc(C)c4c(c3)CCN(C3CCOCC3)C4)n2)CC[C@@H]1C(=O)O [Compound 259]

A:
[8.10, 7.19]

# per-item lookup of pEC50; items listed below
1. Cc1cc(COc2c(C)cccc2-c2csc(N3CC[C@@]4(C(=O)O)C[C@H]4C3)n2)c(C)c2c1CN(C1CCOC1)CC2 (stereo partly drawn) [Compound 100]
2. COC[C@H]1N(c2nc(-c3cccc(C)c3OCc3cc(C)c4c(c3)CCN(C3CCOCC3)C4)cs2)C[C@@H]2C[C@@]21C(=O)O [Compound 162]
3. Cc1c(COc2ccccc2-c2cccc(N3CC[C@@]4(C(=O)O)C[C@H]4C3)n2)ccc2c1CCN(C[C@H]1COCCO1)C2 [Compound 9]

A:
1: 8.52; 2: 8.40; 3: 9.00

Your task in this section: give pEC50 for each listed record.
1. Cc1cccc(-c2cccc(N3CC[C@@H](C(=O)O)[C@H]4OCCC[C@@H]43)n2)c1OCc1ccc2c(c1C)CCN(C1CCOCC1)CC2 [Compound 335]
2. CO[C@H]1CN(c2cccc(-c3cc(C)ccc3OCc3ccc4c(c3C)CCN(C3CCOCC3)C4)n2)CC[C@H]1C(=O)O [Compound 71]
3. CO[C@H]1CN(c2cccc(-c3cccc(C)c3OCc3ccc4c(c3C)CCN(C3COC3)CC4)n2)CC[C@@H]1C(=O)O [Compound 289]
4. Cc1cc(COc2c(C)cccc2-c2csc(N3CC[C@@]4(C(=O)O)C[C@H]4C3)n2)cc2c1CN(C1CCC(F)(F)CC1)CC2 [Compound 303]
5. Cc1ccc(OCc2ccc3c(c2)CCN(C2CCCOC2)C3)c(-c2csc(N3CC[C@@]4(C(=O)O)C[C@H]4C3)n2)c1 (stereo partly drawn) [Compound 113]
6. CCc1cc(COc2c(C)cccc2-c2csc(N3CC[C@@H](C(=O)O)[C@@H](OC)C3)n2)cc2c1CN(C1CCOCC1)CC2 [Compound 170]
7. COC[C@H]1N(c2cccc(-c3cccc(C)c3OCc3ccc4c(c3)CCN(C3CCOCC3)C4)n2)C[C@@H]2C[C@@]21C(=O)O [Compound 44]

A:
1. 7.10
2. 6.96
3. 6.63
4. 8.70
5. 8.30
6. 8.30
7. 7.24

Could you tell me pEC50 for each of these compounds? They are listed below.
1. CCO[C@H]1CN(c2cccc(-c3cccc(Cl)c3OCc3cc4c(c(OC)c3)CN(C3CCOCC3)CC4)n2)CC[C@H]1C(=O)O [Compound 257]
2. Cc1cc(COc2c(C)cccc2-c2csc(N3C[C@@H]4C[C@]4(C(=O)O)C3)n2)cc2c1CN(C1CCOCC1)CC2 [Compound 140]
3. Cc1cccc(-c2csc(N3C[C@@H]4C[C@]4(C(=O)O)C3)n2)c1OCc1ccc2c(c1C)CCN(C1COC1)C2 [Compound 138]

A:
1: 8.52; 2: 8.30; 3: 7.74

====

- assayExplanation: Human liver microsome (HLM) metabolic stability assay
- Format: in vitro ADME
- experimentalParameters: human liver microsomes
I'd be grateful if you could share measured Metabolic stability (Qh %), % hepatic blood flow for these entries.

Worked set:
>>> result("CO[C@H]1CN(c2cccc(-c3cccc(C)c3OCc3ccc4c(c3C)CCN(C3CCOCC3)CC4)n2)CC[C@@H]1C(=O)O [Compound 296]")
"<24%"
>>> result("COC[C@H]1N(c2nc(-c3cccc(C)c3OCc3cc(C)c4c(c3)CCN(C3CCOCC3)C4)cs2)C[C@@H]2C[C@@]21C(=O)O [Compound 162]")
"39%"

Dear colleague, could you please provide Metabolic stability (Qh %), % hepatic blood flow for the molecules listed below?
1. COC[C@H]1N(c2cccc(-c3cccc(C)c3OCc3cc(C)c4c(c3)OCCN(C3CCOCC3)C4)n2)C[C@@H]2C[C@@]21C(=O)O [Compound 314]
2. CO[C@H]1CN(c2nc(-c3cccc(Cl)c3OCc3ccc4c(c3)[C@H](C)CN(C3COC3)CC4)cs2)CC[C@H]1C(=O)O [Compound 322]
3. COC[C@H]1N(c2cccc(-c3cccc(C)c3OCc3ccc4c(c3)CCN(C3CCOCC3)C4)n2)C[C@@H]2C[C@@]21C(=O)O [Compound 44]
4. CO[C@H]1CN(c2cccc(-c3cccc(C)c3OCc3cc(F)c4c(c3)CCN(C3COC3)CC4)n2)CC[C@H]1C(=O)O [Compound 274]

A:
["<24%", "47%", "<24%", "<24%"]

Dear reader, for each entry below, please note its Metabolic stability (Qh %), % hepatic blood flow.
1. CO[C@@H]1CN(c2cccc(-c3cc(C)ccc3OCc3cc(C)c4c(c3)CCN(C3CCOC3)C4)n2)CC[C@@H]1C(=O)O (stereo partly drawn) [Compound 78]
2. Cc1cc(COc2c(C)cccc2-c2csc(N3CC[C@@]4(C(=O)O)C[C@H]4C3)n2)cc2c1CN(CC1COCCO1)CC2 (stereo partly drawn) [Compound 93]
3. Cc1ccc(OCc2ccc3c(c2)CCN(C2CCOCC2)C3=O)c(-c2csc(N3CC[C@@]4(C(=O)O)C[C@H]4C3)n2)c1 [Compound 192]
4. COc1cc(COc2c(C)cccc2-c2csc(N3CC[C@@H](C(=O)O)[C@@H](OC)C3)n2)cc2c1CN(C1COC1)CC2 [Compound 209]
5. Cc1cc(COc2c(C)cccc2-c2cccc(N3C[C@@H]4C[C@]4(C(=O)O)C3)n2)cc2c1CN(C1CCOC1)CC2 (stereo partly drawn) [Compound 25]
6. Cc1cc(COc2c(C)cccc2-c2cccc(N3C[C@@H]4C[C@]4(C(=O)O)C3)n2)cc2c1CN(C1CCOCC1)CC2 [Compound 22]
7. COC[C@H]1N(c2cccc(-c3cccc(C)c3OCc3ccc4c(c3)[C@@H](C)CN(C3CCOCC3)CC4)n2)C[C@@H]2C[C@@]21C(=O)O [Compound 225]

A:
1. <24%
2. <24%
3. <24%
4. <24%
5. <24%
6. <24%
7. 25%

List the reported Metabolic stability (Qh %), % hepatic blood flow of each molecule below.
1. Cc1c(COc2ccccc2-c2cccc(N3CC[C@@]4(C(=O)O)C[C@H]4C3)n2)ccc2c1CCN([C@H]1CCOC1)C2 [Compound 7]
2. Cc1csc(CN2CCc3c(ccc(COc4ccccc4-c4cccc(N5CC[C@@]6(C(=O)O)C[C@H]6C5)n4)c3C)C2)n1 [Compound 304]
3. Cc1cc(COc2c(C)cccc2-c2csc(N3CC[C@@]4(C(=O)O)C[C@H]4C3)n2)c(C)c2c1CN(CC1COCCO1)CC2 (stereo partly drawn) [Compound 98]
4. Cc1ccc(OCc2cc(C)c3c(c2C)CCN(C2CCCOC2)C3)c(-c2csc(N3CC[C@@]4(C(=O)O)C[C@H]4C3)n2)c1 (stereo partly drawn) [Compound 128]
5. Cc1ccc(OCc2ccc3c(c2C)CCN(C2COC2)C3)c(-c2cccc(N3C[C@@H]4C[C@]4(C(=O)O)C3)n2)c1 [Compound 36]

A:
1: 45%; 2: 48%; 3: 48%; 4: <24%; 5: <24%

====

- assayExplanation: Human liver microsome (HLM) metabolic stability assay
- Assay type: in vitro ADME
- experimentalParameters: human liver microsomes
Record form. Attribute: Metabolic stability (Qh %), % hepatic blood flow. Fill in for each entry.

>>> result("COC[C@H]1N(c2cccc(-c3cccc(C)c3OCc3ccc4c(n3)CCN(C3CCOCC3)C4)n2)C[C@@H]2C[C@@]21C(=O)O [Compound 318]")
"<24%"
>>> result("Cc1ccc(OCc2ccc3c(c2)CCN(C2CCCOC2)C3)c(-c2csc(N3CC[C@@]4(C(=O)O)C[C@H]4C3)n2)c1 (stereo partly shown) [Compound 113]")
"<24%"
>>> result("Cc1cc(COc2c(C)cccc2-c2csc(N3CC[C@@]4(C(=O)O)C[C@H]4C3)n2)cc2c1CN(C1CCOC1)CC2 (stereo partly shown) [Compound 95]")
"49%"
>>> result("Cc1ccc(OCc2cc(C)c3c(c2)CCN(C2CCOCC2)C3)c(-c2csc(N3CC[C@H](C(=O)O)[C@H](C)C3)n2)c1 [Compound 236]")
"<24%"
>>> result("Cc1c(COc2ccccc2-c2csc(N3CC[C@@]4(C(=O)O)C[C@H]4C3)n2)ccc2c1CCN(C1CCOCC1)C2 [Compound 83]")
"<24%"
>>> result("CO[C@@H]1CN(c2cccc(-c3cccc(C)c3OCc3ccc4c(c3C)CCN(C)CC4)n2)CC[C@@H]1C(=O)O [Compound 300]")
"<24%"

Would you mind listing Metabolic stability (Qh %), % hepatic blood flow for each of the following compounds?
1. CO[C@H]1CN(c2nc(-c3cccc(C)c3OCc3cc(C)c4c(c3F)CCN(C3CCOCC3)C4)cs2)CC[C@H]1C(=O)O [Compound 242]
2. Cc1ccc(OCc2cc(C)c3c(c2)CCN(CC2COCCO2)C3)c(-c2csc(N3CC[C@@]4(C(=O)O)C[C@H]4C3)n2)c1 (stereo partly shown) [Compound 120]
3. CO[C@@H]1CN(c2cccc(-c3cccc(C)c3OCc3ccc4c(c3C)CCN(C3COC3)CC4)n2)CC[C@H]1C(=O)O [Compound 290]

A:
["<24%", "<24%", "<24%"]

Q: Record request: Metabolic stability (Qh %), % hepatic blood flow value, item CCO[C@@H]1CN(c2cccc(-c3cccc(C)c3OCc3ccc4c(c3C)CCN(C3CCOCC3)CC4)n2)CC[C@@H]1C(=O)O [Compound 239]
A: 87%
